This listing pairs compounds with measured mass density.
Conditions: 298.15 K; 101.33 kPa; Liquid; Vibrating tube method
endpoint_label: mass density (kg/m3)

- smiles_text: "CCCCCC[n+]1cc(C)cc(C)c1CCCCC.O=S(=O)([N-]S(=O)(=O)C(F)(F)F)C(F)(F)F"
  endpoint_label: "mass density"
  reported_measurement: 1253.47
- smiles_text: "CCCCCc1c(C)cc(C)c[n+]1CCCC.O=S(=O)([N-]S(=O)(=O)C(F)(F)F)C(F)(F)F"
  endpoint_label: "mass density"
  reported_measurement: 1288.23
- smiles_text: "CCCCCC[n+]1cc(C)cc(C)c1C.O=S(=O)([N-]S(=O)(=O)C(F)(F)F)C(F)(F)F"
  endpoint_label: "mass density"
  reported_measurement: 1336.18
- smiles_text: "CCCCCc1c(C)cc(C)c[n+]1CC.O=S(=O)([N-]S(=O)(=O)C(F)(F)F)C(F)(F)F"
  endpoint_label: "mass density"
  reported_measurement: 1323.9

====

Assay: refractive index (Na D-line) (dimensionless)
Conditions: 343.15 K; 101.33 kPa; Liquid; Standard Abbe refractometry

- smiles_text: "CCCCCc1c(C)cc(C)c[n+]1CC.O=S(=O)([N-]S(=O)(=O)C(F)(F)F)C(F)(F)F"
  refractive index: 1.44667
- smiles_text: "CCCCCc1c(C)cc(C)c[n+]1CCCC.O=S(=O)([N-]S(=O)(=O)C(F)(F)F)C(F)(F)F"
  refractive index: 1.44588
- smiles_text: "CCCCCC[n+]1cc(C)cc(C)c1C.O=S(=O)([N-]S(=O)(=O)C(F)(F)F)C(F)(F)F"
  refractive index: 1.45044
- smiles_text: "CCCCCC[n+]1cc(C)cc(C)c1CCCCC.O=S(=O)([N-]S(=O)(=O)C(F)(F)F)C(F)(F)F"
  refractive index: 1.44607

====

Settings: 338.15 K; 101.33 kPa; Liquid; Capillary tube (Ostwald / Ubbelohde) method
This listing pairs compounds with measured viscosity.
endpoint_label: viscosity (mPa·s)

- smiles_text: "CCCCCc1c(C)cc(C)c[n+]1CCCC.O=S(=O)([N-]S(=O)(=O)C(F)(F)F)C(F)(F)F"
  reported_measurement: 34.2
- smiles_text: "CCCCCC[n+]1cc(C)cc(C)c1CCCCC.O=S(=O)([N-]S(=O)(=O)C(F)(F)F)C(F)(F)F"
  reported_measurement: 37.1
- smiles_text: "CCCCCC[n+]1cc(C)cc(C)c1C.O=S(=O)([N-]S(=O)(=O)C(F)(F)F)C(F)(F)F"
  reported_measurement: 27.1
- smiles_text: "CCCCCc1c(C)cc(C)c[n+]1CC.O=S(=O)([N-]S(=O)(=O)C(F)(F)F)C(F)(F)F"
  reported_measurement: 33.5

====

Settings: 313.15 K; 101.33 kPa; Liquid; Capillary tube (Ostwald / Ubbelohde) method

- smiles_text: "CCCCCc1c(C)cc(C)c[n+]1CC.O=S(=O)([N-]S(=O)(=O)C(F)(F)F)C(F)(F)F"
  viscosity / mPa·s: 104
- smiles_text: "CCCCCC[n+]1cc(C)cc(C)c1C.O=S(=O)([N-]S(=O)(=O)C(F)(F)F)C(F)(F)F"
  viscosity / mPa·s: 76.2
- smiles_text: "CCCCCc1c(C)cc(C)c[n+]1CCCC.O=S(=O)([N-]S(=O)(=O)C(F)(F)F)C(F)(F)F"
  viscosity / mPa·s: 105
- smiles_text: "CCCCCC[n+]1cc(C)cc(C)c1CCCCC.O=S(=O)([N-]S(=O)(=O)C(F)(F)F)C(F)(F)F"
  viscosity / mPa·s: 115

====

Details: 298.15 K; 101.33 kPa; Liquid; Sing-around technique in a fixed-path interferometer

- smiles_text: "CCCCCC[n+]1cc(C)cc(C)c1CCCCC.O=S(=O)([N-]S(=O)(=O)C(F)(F)F)C(F)(F)F"
  speed of sound, m/s: 1291
- smiles_text: "CCCCCc1c(C)cc(C)c[n+]1CC.O=S(=O)([N-]S(=O)(=O)C(F)(F)F)C(F)(F)F"
  speed of sound, m/s: 1309
- smiles_text: "CCCCCc1c(C)cc(C)c[n+]1CCCC.O=S(=O)([N-]S(=O)(=O)C(F)(F)F)C(F)(F)F"
  speed of sound, m/s: 1293
- smiles_text: "CCCCCC[n+]1cc(C)cc(C)c1C.O=S(=O)([N-]S(=O)(=O)C(F)(F)F)C(F)(F)F"
  speed of sound, m/s: 1288

====

Test: refractive index (Na D-line) (dimensionless)
Settings: 318.15 K; 101.33 kPa; Liquid; Standard Abbe refractometry
This listing pairs molecules with measured refractive index.

- smiles_text: "CCCCCC[n+]1cc(C)cc(C)c1CCCCC.O=S(=O)([N-]S(=O)(=O)C(F)(F)F)C(F)(F)F"
  refractive index: 1.45417
- smiles_text: "CCCCCc1c(C)cc(C)c[n+]1CC.O=S(=O)([N-]S(=O)(=O)C(F)(F)F)C(F)(F)F"
  refractive index: 1.45463
- smiles_text: "CCCCCc1c(C)cc(C)c[n+]1CCCC.O=S(=O)([N-]S(=O)(=O)C(F)(F)F)C(F)(F)F"
  refractive index: 1.45386
- smiles_text: "CCCCCC[n+]1cc(C)cc(C)c1C.O=S(=O)([N-]S(=O)(=O)C(F)(F)F)C(F)(F)F"
  refractive index: 1.45826

====

This listing pairs compounds with measured mass density.
Settings: 313.15 K; 101.33 kPa; Liquid; Vibrating tube method

- smiles_text: "CCCCCc1c(C)cc(C)c[n+]1CCCC.O=S(=O)([N-]S(=O)(=O)C(F)(F)F)C(F)(F)F"
  readout_unit: "kg/m3"
  mass density: 1275.33
- smiles_text: "CCCCCC[n+]1cc(C)cc(C)c1C.O=S(=O)([N-]S(=O)(=O)C(F)(F)F)C(F)(F)F"
  readout_unit: "kg/m3"
  mass density: 1323.15
- smiles_text: "CCCCCC[n+]1cc(C)cc(C)c1CCCCC.O=S(=O)([N-]S(=O)(=O)C(F)(F)F)C(F)(F)F"
  readout_unit: "kg/m3"
  mass density: 1240.9
- smiles_text: "CCCCCc1c(C)cc(C)c[n+]1CC.O=S(=O)([N-]S(=O)(=O)C(F)(F)F)C(F)(F)F"
  readout_unit: "kg/m3"
  mass density: 1310.86

====

This listing pairs compounds with measured speed of sound.
Details: 308.15 K; 101.33 kPa; Liquid; Sing-around technique in a fixed-path interferometer
endpoint_label: speed of sound (m/s)

- smiles_text: "CCCCCc1c(C)cc(C)c[n+]1CC.O=S(=O)([N-]S(=O)(=O)C(F)(F)F)C(F)(F)F"
  readout_unit: "m/s"
  reported_measurement: 1283
- smiles_text: "CCCCCC[n+]1cc(C)cc(C)c1CCCCC.O=S(=O)([N-]S(=O)(=O)C(F)(F)F)C(F)(F)F"
  readout_unit: "m/s"
  reported_measurement: 1264
- smiles_text: "CCCCCC[n+]1cc(C)cc(C)c1C.O=S(=O)([N-]S(=O)(=O)C(F)(F)F)C(F)(F)F"
  readout_unit: "m/s"
  reported_measurement: 1264
- smiles_text: "CCCCCc1c(C)cc(C)c[n+]1CCCC.O=S(=O)([N-]S(=O)(=O)C(F)(F)F)C(F)(F)F"
  readout_unit: "m/s"
  reported_measurement: 1266

====

This listing pairs compounds with measured refractive index.
Experiment: refractive index (Na D-line) (dimensionless)
Settings: 328.15 K; 101.33 kPa; Liquid; Standard Abbe refractometry

- smiles_text: "CCCCCc1c(C)cc(C)c[n+]1CC.O=S(=O)([N-]S(=O)(=O)C(F)(F)F)C(F)(F)F"
  refractive index: 1.45139
- smiles_text: "CCCCCC[n+]1cc(C)cc(C)c1CCCCC.O=S(=O)([N-]S(=O)(=O)C(F)(F)F)C(F)(F)F"
  refractive index: 1.45093
- smiles_text: "CCCCCC[n+]1cc(C)cc(C)c1C.O=S(=O)([N-]S(=O)(=O)C(F)(F)F)C(F)(F)F"
  refractive index: 1.45514
- smiles_text: "CCCCCc1c(C)cc(C)c[n+]1CCCC.O=S(=O)([N-]S(=O)(=O)C(F)(F)F)C(F)(F)F"
  refractive index: 1.45065

====

Conditions: 328.15 K; 101.33 kPa; Liquid; Vibrating tube method
This listing pairs molecules with measured mass density.

- smiles_text: "CCCCCc1c(C)cc(C)c[n+]1CCCC.O=S(=O)([N-]S(=O)(=O)C(F)(F)F)C(F)(F)F"
  readout_unit: "kg/m3"
  mass density: 1262.51
- smiles_text: "CCCCCC[n+]1cc(C)cc(C)c1C.O=S(=O)([N-]S(=O)(=O)C(F)(F)F)C(F)(F)F"
  readout_unit: "kg/m3"
  mass density: 1310.23
- smiles_text: "CCCCCC[n+]1cc(C)cc(C)c1CCCCC.O=S(=O)([N-]S(=O)(=O)C(F)(F)F)C(F)(F)F"
  readout_unit: "kg/m3"
  mass density: 1228.37
- smiles_text: "CCCCCc1c(C)cc(C)c[n+]1CC.O=S(=O)([N-]S(=O)(=O)C(F)(F)F)C(F)(F)F"
  readout_unit: "kg/m3"
  mass density: 1297.9
